Answer each item with its documented self-aminoacylation.
- Tested on: biotinyl-Phe-oxazolone
- assay-protocol: self-aminoacylation, catalytic enhancement (BFO) (fold over background); higher = more active; k-Seq, kA / k0A0; sequences stand for … in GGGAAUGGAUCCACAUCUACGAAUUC…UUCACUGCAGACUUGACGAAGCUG
This sample holds only a part of the variants without activity.
Numbers only.

Known self-aminoacylation results, listed for orientation:
sequence-input: AUUACCCUGGUCACCUAGUGA [Fam2.1 aminoacylation ribozyme variant]
self-aminoacylation: 25.9

sequence-input: AUUACGCUGUUCAUCGAGUGA [Fam2.1 aminoacylation ribozyme variant]
self-aminoacylation: 4.19

sequence-input: AUUCACCGAGGUGAUCGGGUG [Fam2.2 aminoacylation ribozyme variant]
self-aminoacylation: 29.6

sequence-input: AGGUUUGCUAAUAAUCGCAAG [Fam3.1 aminoacylation ribozyme variant]
self-aminoacylation: 1.91

Consider the record given below.
Fill in reported self-aminoacylation for this entry: AAGUUUUCCAAUAGUCGCAAG [Fam3.1 aminoacylation ribozyme variant]
2.43

---

- Test system: biotinyl-Trp-oxazolone
- assay-protocol: self-aminoacylation, catalytic enhancement (BWO) (fold over background); higher = more active; k-Seq, kA / k0A0; sequences stand for … in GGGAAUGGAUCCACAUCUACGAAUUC…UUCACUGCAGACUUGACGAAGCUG
Variants at the floor of the assay were thinned out.
Provide the reported self-aminoacylation of each item.
Answers are plain numbers.

sequence-input: CCACACUUCAAGCAAGCGUUC [Fam1B.1 aminoacylation ribozyme variant]
target-system: biotinyl-Trp-oxazolone
self-aminoacylation: 0.492

sequence-input: CUACUUCAGACAAUCGGUCUU [Fam1A.1 aminoacylation ribozyme variant]
target-system: biotinyl-Trp-oxazolone
self-aminoacylation: 0.663

sequence-input: CUACUUCAAACAAUCGGUCCU [Fam1A.1 aminoacylation ribozyme variant]
target-system: biotinyl-Trp-oxazolone
self-aminoacylation: 3.25

sequence-input: AUUACCCUGCUCAUUGAGUGA [Fam2.1 aminoacylation ribozyme variant]
target-system: biotinyl-Trp-oxazolone
self-aminoacylation: 5.58

I have 8 sequences here; please give me self-aminoacylation for each one.
1. AUUCACCUAGGUGAUUGGGUG [Fam2.2 aminoacylation ribozyme variant]
2. AUUUCCCUGUUCAUCGAGUGA [Fam2.1 aminoacylation ribozyme variant]
3. AUUGACCUAGUUCAUCGGGUG [Fam2.2 aminoacylation ribozyme variant]
4. CCACACUUCAAUCAAUUGGUC [Fam1B.1 aminoacylation ribozyme variant]
5. AUUCACCAAGGCCAUCGGGUG [Fam2.2 aminoacylation ribozyme variant]
6. CUUACCCUGGUCAUCGCGUGA [Fam2.1 aminoacylation ribozyme variant]
7. CUACUUCAAACAACCUGUCUG [Fam1A.1 aminoacylation ribozyme variant]
8. AAGUUUGCUAAUAGUCGAAAG [Fam3.1 aminoacylation ribozyme variant]

1. 2.96
2. 5.62
3. 4.08
4. 0.719
5. 4.57
6. 18.5
7. 0.325
8. 5.4

---

- System: biotinyl-Val-oxazolone
- assay-protocol: self-aminoacylation, catalytic enhancement (BVO) (fold over background); higher = more active; k-Seq, kA / k0A0; sequences stand for … in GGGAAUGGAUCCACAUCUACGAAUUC…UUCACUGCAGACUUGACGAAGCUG
This sample holds only a part of the variants without activity.
Entry class follows self-aminoacylation: label 0 = under 0.9, label 1 = from 0.9 up to 2, label 2 = 2 and over

Take a look at these entries with their results.
sequence-input: UUACUUCAAACCAUCGGUCUG [Fam1A.1 aminoacylation ribozyme variant]
category: label 1
--
sequence-input: AUUACCCUUGUCAUCGAGCGA [Fam2.1 aminoacylation ribozyme variant]
category: label 1
--
sequence-input: AUUAACCUAGGUCAUCGGGGG [Fam2.2 aminoacylation ribozyme variant]
category: label 2
--
sequence-input: CCACACUUCAAGCAAUCUGAC [Fam1B.1 aminoacylation ribozyme variant]
category: label 0

# bin lookup: classify CCACACUUCAAGAAAGCGGUC [Fam1B.1 aminoacylation ribozyme variant] by its self-aminoacylation
label 0

Form field 'band' for CUACUCCAAACAAUAGGUCUG [Fam1A.1 aminoacylation ribozyme variant]
label 0

Categorize the following entry: AUUACCCUGGUCGUCGAAUGA [Fam2.1 aminoacylation ribozyme variant]
label 0

Given AUUACACUGGUCAUCGAGGGA [Fam2.1 aminoacylation ribozyme variant] , name the class its self-aminoacylation places it in.
label 1

Returns: class label. Input: CUACUUCAAACAAUCGAUCGG [Fam1A.1 aminoacylation ribozyme variant]
label 0

From: the supplement of paper PMC9233669
